All figures here come from patent US20230167093A1.

Test system: HTT CJ mRNA
Assay: RT-qPCR splicing assay, HTT canonical junction (CJ) mRNA decrease
Format: cell-based
Details: A673 or K562 cells, 24 hours compound treatment, top dose 10 uM; concentration having 50% response in CJ decrease
Experimental: Compounds described herein were used to modulate RNA transcript abundance in cells. The expression of a target mRNA was measured by detecting the formation of an exon-exon junction in the canonical transcript (CJ). A compound mediated exon-inclusion event was detected by observing an increase in formation of a new junction with an alternative exon (AJ). […] After treatment, the levels of the HTT mRNA targets were determined from each sample of cell lysate by cDNA synthesis followed by qPCR. […]
OBSERVATION_TYPE: AC50

Incoming: Requested read-out: AC50. Entry: "CN(c1ccc2ncn(-c3cc(F)c4nn(C)cc4c3)c(=O)c2c1)C1CCNCC1"
Outgoing: > 10 µM

Incoming: Would you kindly repeat that for "Cc1cc(-c2ccc3ncn(C4CCNCC4)c(=O)c3c2)cc2cn(C)nc12" ?
Outgoing: > 10 µM

Incoming: Would you kindly repeat that for "CN1CCC(N(C)c2ccc3ncn(-c4cc(F)c5nn(C)cc5c4)c(=O)c3c2)CC1" ?
Outgoing: > 10 µM
